Experiment: Hygroscopicity measurements (DVS sorption/desorption profiles)
Type: physicochemical
Settings: Target % P/P0 30.0; 25° C.
Observable: Change in Mass (%) - ref, Hysteresis

// solved cases for Change in Mass (%) - ref, Hysteresis follow
Compound | Measurement Units | Change in Mass (%) - ref, Hysteresis
Cc1nc(-c2ccc(OCC(C)C)c(C#N)c2)sc1C(=O)O [Form IX] | % | 0.176
Cc1nc(-c2ccc(OCC(C)C)c(C#N)c2)sc1C(=O)O [Form XI] | % | 0.203

I: Cc1nc(-c2ccc(OCC(C)C)c(C#N)c2)sc1C(=O)O [Form V]
II: Cc1nc(-c2ccc(OCC(C)C)c(C#N)c2)sc1C(=O)O [Form G of U.S. Pat. No. 6,225,474, reference compound]
# input Given the listed records, identify the one among I and II with higher Change in Mass (%) - ref, Hysteresis. Please indicate the selected item by its label.
# output II
(II: 0.219%, I: −8.53%)

Hey, just so you know, these numbers are from patent US20130225830A1.
